Test system: IGROV1 complex spheroids (HUVEC, MSC), viability % test/control
Protocol Details: Anticancer human tumor IGROV1 cell line growth inhibition [GQUAD]; active means viability on the fitted dose curve at most 10% of control; inactive means the rest;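 further: spheroids exposed to compounds for 7 days before readout; 100% = DMSO vehicle control viability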
Condition Info: second compound 0.316 µM; first compound 3.16 µM
Select the correct class. Options are 1 (yes) for active, 0 (no) for inactive and nothing else.

Dear all, I need the recorded test outcome for COc1cccc2c1C(=O)c1c(O)c3c(c(O)c1C2=O)CC(O)(C(=O)CO)CC3OC1CC(N)C(O)C(C)O1 (stereo not given) + CN(C)c1ccc(Nc2c3ccc(NC(=O)CCN4CCCC4)cc3nc3cc(NC(=O)CCN4CCCC4)ccc23)cc1 , thank you. 1 (yes)

Dear all, I need the recorded test outcome for CC1COCCN1c1cc(-c2ccnn2C)c2ccnc(-c3ccn[nH]3)c2n1 (stereo not given) + CN(C)c1ccc(Nc2c3ccc(NC(=O)CCN4CCCC4)cc3nc3cc(NC(=O)CCN4CCCC4)ccc23)cc1 , thank you. 1 (yes)

Dear all, I need the recorded test outcome for COc1ncnc(C2CC2)c1-c1ncc2cnn(Cc3ccc(-c4nc(C(F)(F)F)cn4C(C)C)cc3)c2n1 + Cc1cnc(CNC(=O)c2c(=O)c3ccc(N4CCCN(C)CC4)nc3n3c2sc2ccccc23)cn1 , thank you. 0 (no)

Dear all, I need the recorded test outcome for CC1COCCN1c1cc(C2(S(C)(=N)=O)CC2)nc(-c2ccnc3[nH]ccc23)n1 (stereo not given) + Cc1[nH]c2ccc(F)cc2c1-c1nc2c3cccnc3c3ncccc3c2[nH]1 , thank you. 1 (yes)

Dear all, I need the recorded test outcome for CC(=O)O[C@H]1C(=O)[C@@]2(C)[C@H]([C@H](OC(=O)c3ccccc3)[C@]3(O)C[C@H](OC(=O)[C@H](O)[C@@H](NC(=O)c4ccccc4)c4ccccc4)C(C)=C1C3(C)C)[C@]1(OC(C)=O)CO[C@@H]1C[C@@H]2O + CN(C)c1ccc(Nc2c3ccc(NC(=O)CCN4CCCC4)cc3nc3cc(NC(=O)CCN4CCCC4)ccc23)cc1 , thank you. 1 (yes)

Dear all, I need the recorded test outcome for CCCS(=O)(=O)Nc1ccc(F)c(C(=O)c2c[nH]c3ncc(-c4ccc(Cl)cc4)cc23)c1F + Cc1cnc(CNC(=O)c2c(=O)c3ccc(N4CCCN(C)CC4)nc3n3c2sc2ccccc23)cn1 , thank you. 0 (no)

Dear all, I need the recorded test outcome for Nc1ccn(C2OC(CO)C(O)C2(F)F)c(=O)n1 (stereo not given) + Cc1cnc(CNC(=O)c2c(=O)c3ccc(N4CCCN(C)CC4)nc3n3c2sc2ccccc23)cn1 , thank you. 1 (yes)

Dear all, I need the recorded test outcome for Nc1ccn(C2OC(CO)C(O)C2(F)F)c(=O)n1 (stereo not given) + CN(C)c1ccc(Nc2c3ccc(NC(=O)CCN4CCCC4)cc3nc3cc(NC(=O)CCN4CCCC4)ccc23)cc1 , thank you. 1 (yes)

Dear all, I need the recorded test outcome for COc1cc(C2c3cc4c(cc3C(OC3OC5COC(C)OC5C(O)C3O)C3COC(=O)C23)OCO4)cc(OC)c1O (stereo not given) + CN(C)c1ccc(Nc2c3ccc(NC(=O)CCN4CCCC4)cc3nc3cc(NC(=O)CCN4CCCC4)ccc23)cc1 , thank you. 1 (yes)

Dear all, I need the recorded test outcome for O=C(c1cc(Cc2n[nH]c(=O)c3ccccc23)ccc1F)N1CCN(C(=O)C2CC2)CC1 + Cc1cnc(CNC(=O)c2c(=O)c3ccc(N4CCCN(C)CC4)nc3n3c2sc2ccccc23)cn1 , thank you. 0 (no)

Dear all, I need the recorded test outcome for Cc1cccc(N(C)C(=O)C2C(O)CCN2c2nc(C)cc(C(F)(F)F)c2C#N)c1 (stereo not given) + Cc1cnc(CNC(=O)c2c(=O)c3ccc(N4CCCN(C)CC4)nc3n3c2sc2ccccc23)cn1 , thank you. 0 (no)

Dear all, I need the recorded test outcome for COc1cccc2c1C(=O)c1c(O)c3c(c(O)c1C2=O)CC(O)(C(=O)CO)CC3OC1CC(N)C(O)C(C)O1 (stereo not given) + Cc1[nH]c2ccc(F)cc2c1-c1nc2c3cccnc3c3ncccc3c2[nH]1 , thank you. 1 (yes)

Dear all, I need the recorded test outcome for CC(C)n1c(=O)n(C)c2cnc3cc(F)c(-c4ccc(OCCCN5CCCCC5)nc4)cc3c21 + CN(C)c1ccc(Nc2c3ccc(NC(=O)CCN4CCCC4)cc3nc3cc(NC(=O)CCN4CCCC4)ccc23)cc1 , thank you. 0 (no)

Dear all, I need the recorded test outcome for O=c1[nH]cc(F)c(=O)[nH]1 + Cc1cnc(CNC(=O)c2c(=O)c3ccc(N4CCCN(C)CC4)nc3n3c2sc2ccccc23)cn1 , thank you. 0 (no)

Dear all, I need the recorded test outcome for COc1cccc2c1C(=O)c1c(O)c3c(c(O)c1C2=O)CC(O)(C(=O)CO)CC3OC1CC(N)C(O)C(C)O1 (stereo not given) + Cc1cnc(CNC(=O)c2c(=O)c3ccc(N4CCCN(C)CC4)nc3n3c2sc2ccccc23)cn1 , thank you. 1 (yes)

Dear all, I need the recorded test outcome for CC1COCCN1c1cc(C2(O)CC3CCC(C2)O3)c2cnn(-c3ccn[nH]3)c2n1 (stereo not given) + Cc1cnc(CNC(=O)c2c(=O)c3ccc(N4CCCN(C)CC4)nc3n3c2sc2ccccc23)cn1 , thank you. 1 (yes)

Dear all, I need the recorded test outcome for C=CC(=O)N1CCN(c2nc(=O)n(-c3c(C)ccnc3C(C)C)c3nc(-c4c(O)cccc4F)c(F)cc23)C(C)C1 (stereo not given) + Cc1cnc(CNC(=O)c2c(=O)c3ccc(N4CCCN(C)CC4)nc3n3c2sc2ccccc23)cn1 , thank you. 0 (no)

Dear all, I need the recorded test outcome for CC1COCCN1c1cc(C2(S(C)(=N)=O)CC2)nc(-c2ccnc3[nH]ccc23)n1 (stereo not given) + Cc1cnc(CNC(=O)c2c(=O)c3ccc(N4CCCN(C)CC4)nc3n3c2sc2ccccc23)cn1 , thank you. 1 (yes)

Dear all, I need the recorded test outcome for Cc1cccc(N(C)C(=O)C2C(O)CCN2c2nc(C)cc(C(F)(F)F)c2C#N)c1 (stereo not given) + Cc1[nH]c2ccc(F)cc2c1-c1nc2c3cccnc3c3ncccc3c2[nH]1 , thank you. 0 (no)

Dear all, I need the recorded test outcome for COc1cc(C2c3cc4c(cc3C(OC3OC5COC(C)OC5C(O)C3O)C3COC(=O)C23)OCO4)cc(OC)c1O (stereo not given) + Cc1cnc(CNC(=O)c2c(=O)c3ccc(N4CCCN(C)CC4)nc3n3c2sc2ccccc23)cn1 , thank you. 1 (yes)

###

For each entry below, report its viability, T/C value.
Tested on: IGROV1 complex spheroids (HUVEC, MSC), viability % test/control
Protocol Details: Anticancer human tumor IGROV1 cell line growth inhibition [GQUAD];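 further: spheroids exposed to compounds for 7 days before readout; 100% = DMSO vehicle control viability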
Condition Info: second compound 0.1 µM; first compound 0.0999 µM; stronger effect = lower value
The answer is to be given in %; state only the numeric part.

Which viability, T/C value belongs to Cc1[nH]c2ccccc2c1CCNCc1ccc(/C=C/C(=O)NO)cc1 + Cc1cnc(CNC(=O)c2c(=O)c3ccc(N4CCCN(C)CC4)nc3n3c2sc2ccccc23)cn1 ? 2.91

Which viability, T/C value belongs to Cn1ncnc1[C@H]1c2n[nH]c(=O)c3cc(F)cc(c23)N[C@@H]1c1ccc(F)cc1 + CN(C)c1ccc(Nc2c3ccc(NC(=O)CCN4CCCC4)cc3nc3cc(NC(=O)CCN4CCCC4)ccc23)cc1 ? 49.7

Which viability, T/C value belongs to Cn1ncnc1[C@H]1c2n[nH]c(=O)c3cc(F)cc(c23)N[C@@H]1c1ccc(F)cc1 + Cc1[nH]c2ccc(F)cc2c1-c1nc2c3cccnc3c3ncccc3c2[nH]1 ? 53.1

Which viability, T/C value belongs to CC[C@@]1(O)C(=O)OCc2c1cc1n(c2=O)Cc2cc3c(CN(C)C)c(O)ccc3nc2-1 + Cc1[nH]c2ccc(F)cc2c1-c1nc2c3cccnc3c3ncccc3c2[nH]1 ? 10.7

Which viability, T/C value belongs to CCc1c2c(nc3ccc(O)cc13)-c1cc3c(c(=O)n1C2)COC(=O)[C@]3(O)CC + Cc1[nH]c2ccc(F)cc2c1-c1nc2c3cccnc3c3ncccc3c2[nH]1 ? 4.33

Which viability, T/C value belongs to CC[C@@]1(O)C(=O)OCc2c1cc1n(c2=O)Cc2cc3c(CN(C)C)c(O)ccc3nc2-1 + Cc1cnc(CNC(=O)c2c(=O)c3ccc(N4CCCN(C)CC4)nc3n3c2sc2ccccc23)cn1 ? 12

Which viability, T/C value belongs to Cn1ncnc1[C@H]1c2n[nH]c(=O)c3cc(F)cc(c23)N[C@@H]1c1ccc(F)cc1 + Cc1cnc(CNC(=O)c2c(=O)c3ccc(N4CCCN(C)CC4)nc3n3c2sc2ccccc23)cn1 ? 21.6

###

Test system: IGROV1 complex spheroids (HUVEC, MSC), viability % test/control
Protocol Details: Anticancer human tumor IGROV1 cell line growth inhibition [GQUAD]; active means viability on the fitted dose curve at most 10% of control; inactive means the rest;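 further: spheroids exposed to compounds for 7 days before readout; 100% = DMSO vehicle control viability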
Condition Info: second compound 0.1 µM; first compound 0.316 µM
Excerpt: DNA G-quadruplex Stabilizer Agents in Combinations in Complex Spheroids A high-throughput screen of multi-cell type tumor spheroids was designed to identify active combinations of DNA G-quadruplex stabilizer agents and targeted small molecules. […] Compounds. […] If the clinical Cmax for an agent had not been determined, the highest concentration tested was 10 microM. […]
Select the correct class. Options are t (active), f (inactive) and nothing else.

Dear all, I need the recorded test outcome for COc1cc(C2c3cc4c(cc3C(OC3OC5COC(C)OC5C(O)C3O)C3COC(=O)C23)OCO4)cc(OC)c1O (stereo not given) + Cc1cnc(CNC(=O)c2c(=O)c3ccc(N4CCCN(C)CC4)nc3n3c2sc2ccccc23)cn1 , thank you. f

Dear all, I need the recorded test outcome for Cc1cccc(N(C)C(=O)C2C(O)CCN2c2nc(C)cc(C(F)(F)F)c2C#N)c1 (stereo not given) + Cc1cnc(CNC(=O)c2c(=O)c3ccc(N4CCCN(C)CC4)nc3n3c2sc2ccccc23)cn1 , thank you. f

Dear all, I need the recorded test outcome for CC1COCCN1c1cc(C2(O)CC3CCC(C2)O3)c2cnn(-c3ccn[nH]3)c2n1 (stereo not given) + Cc1cnc(CNC(=O)c2c(=O)c3ccc(N4CCCN(C)CC4)nc3n3c2sc2ccccc23)cn1 , thank you. t

Dear all, I need the recorded test outcome for CC(C)(O)C1CCC(Nc2ccc3ncc(-c4cccc(C(F)(F)F)c4)n3n2)CC1 (stereo not given) + CN(C)c1ccc(Nc2c3ccc(NC(=O)CCN4CCCC4)cc3nc3cc(NC(=O)CCN4CCCC4)ccc23)cc1 , thank you. f

Dear all, I need the recorded test outcome for CC(C)(O)C1CCC(Nc2ccc3ncc(-c4cccc(C(F)(F)F)c4)n3n2)CC1 (stereo not given) + Cc1[nH]c2ccc(F)cc2c1-c1nc2c3cccnc3c3ncccc3c2[nH]1 , thank you. f
